Where do these numbers come from? They come from patent US20100273814A1.

Biological target: alpha2A receptor (Homo sapiens, UniProt P08913)
Construct: expressed in transfected cells; host or cells: NIH-3T3 cells
Sequence (P08913 whole entry): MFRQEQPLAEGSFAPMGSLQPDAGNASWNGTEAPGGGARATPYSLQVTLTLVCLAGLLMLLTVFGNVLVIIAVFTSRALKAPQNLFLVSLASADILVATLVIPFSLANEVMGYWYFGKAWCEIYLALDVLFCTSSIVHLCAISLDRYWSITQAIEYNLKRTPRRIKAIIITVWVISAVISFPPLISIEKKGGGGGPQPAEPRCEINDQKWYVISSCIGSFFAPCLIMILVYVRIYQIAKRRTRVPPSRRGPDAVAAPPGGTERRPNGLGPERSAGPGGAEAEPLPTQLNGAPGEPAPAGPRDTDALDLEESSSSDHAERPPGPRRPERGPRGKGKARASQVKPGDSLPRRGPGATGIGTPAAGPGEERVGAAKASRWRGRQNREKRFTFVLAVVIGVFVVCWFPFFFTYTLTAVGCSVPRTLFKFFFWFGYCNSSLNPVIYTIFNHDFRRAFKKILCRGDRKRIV
Assay: Receptor Selection and Amplification Technology (RSAT) assay, alpha2A
Type: cell-based
Conditions: RSAT, transfected NIH-3T3 cells; value outside brackets; read-out: Alpha 2A EC50 (potency)
property.measured: EC50

Noted for Cc1ccccc1C(c1cccnc1)c1c[nH]cn1 (centres unmarked) : its EC50 reads > 10 µM

So, Fc1c(C(c2ccncc2)c2c[nH]cn2)cccc1C(F)(F)F (centres unmarked) ? Its EC50 was > 10 µM

Input Clc1cccc(C(c2cccnc2)c2c[nH]cn2)c1Cl (centres unmarked) . Output EC50: 0.605 µM

EC50 reading for Fc1cccc(C(c2cccnc2)c2c[nH]cn2)c1Cl (centres unmarked) : 3.37 µM

EC50 recorded for this molecule, c1ccc(C(c2ccncc2)c2c[nH]cn2)cc1 (centres unmarked) , is > 10 µM

// sample Cc1c(F)cccc1C(c1ccccn1)c1c[nH]cn1 (centres unmarked) , its EC50 was > 10 µM

The molecule listed as Cc1cccc(C(c2ccccn2)c2c[nH]cn2)c1C (centres unmarked) shows EC50 equal to 1.93 µM

// sample Fc1cccc(C(c2cccnc2)c2c[nH]cn2)c1F (centres unmarked) , its EC50 was > 10 µM

The recorded EC50 for Fc1c(C(c2ccccn2)c2c[nH]cn2)cccc1C(F)(F)F (centres unmarked) is > 10 µM

What the record says about Fc1cccc(C(c2ccncc2)c2c[nH]cn2)c1F (centres unmarked) : EC50 is > 10 µM

According to the records, this molecule Cc1c(Cl)cccc1C(c1ccccn1)c1c[nH]cn1 (centres unmarked) displays EC50 of > 10 µM

Lab note: Fc1c(Cl)cccc1C(c1ccncc1)c1cnc[nH]1 (centres unmarked) gave EC50 of > 10 µM

Measured EC50, Fc1cccc(C(c2ccccn2)c2c[nH]cn2)c1 (centres unmarked) : > 10 µM

EC50 measured on Fc1c(Cl)cccc1C(c1ccccn1)c1cnc[nH]1 (centres unmarked) = > 10 µM

Per the records, this molecule ( Fc1cccc(C(c2cccnc2)c2c[nH]cn2)c1 (centres unmarked) ) has EC50 equal to > 10 µM

molecule Cc1cccc(C(c2cccnc2)c2c[nH]cn2)c1C (centres unmarked) , EC50 observed: > 10 µM

The molecule Fc1c(C(c2cccnc2)c2c[nH]cn2)cccc1C(F)(F)F (centres unmarked) showed EC50 equal to > 10 µM

Reported EC50 for Fc1cccc(C(c2ccccn2)c2c[nH]cn2)c1F (centres unmarked) was > 10 µM

# EC50 (molecule: Cc1c(F)cccc1C(c1ccncc1)c1c[nH]cn1 (centres unmarked) ) is > 10 µM

EC50 reading for Fc1cccc(C(c2ccncc2)c2c[nH]cn2)c1 (centres unmarked) : > 10 µM

Per the records, this molecule ( Fc1ccccc1C(c1ccccn1)c1c[nH]cn1 (centres unmarked) ) has EC50 equal to > 10 µM

// EC50 value for Fc1ccccc1C(c1ccncc1)c1c[nH]cn1 (centres unmarked) : > 10 µM

Quick note, EC50 for Cc1cccc(C(c2ccncc2)c2c[nH]cn2)c1C (centres unmarked) landed at 1.51 µM

// field: EC50; key: Cc1c(Cl)cccc1C(c1ccncc1)c1c[nH]cn1 (centres unmarked) ; value = > 10 µM

// Fc1c(Cl)cccc1C(c1cccnc1)c1cnc[nH]1 (centres unmarked) : EC50 value = > 10 µM

Value of EC50 reported for the molecule c1ccc(C(c2cccnc2)c2c[nH]cn2)cc1 (centres unmarked) is > 10 µM
